- procedureText: Spectrophotometric response of dyes in dilute acetonitrile solution
- Format: physicochemical
propertyLabel: B1/2BW (bathochromic one-half bandwidth) (nm)

CCCCc1ccc(NC(=O)C(=Nc2ccc(N(CC)CCNS(C)(=O)=O)cc2C)C(=O)c2cn(C)c3ccccc23)cc1 :: 39
CCCCc1ccc(NC(=O)C(=Nc2ccc(N(CC)CCNS(C)(=O)=O)cc2C)C(=O)c2c(-c3ccccc3)c3ccccc3n2C)cc1 :: 46
CCCCc1ccc(NC(=O)C(=Nc2ccc(N(CC)CCNS(C)(=O)=O)cc2C)C(=O)c2cccn2-c2ccccc2)cc1 [Cmp-3, reference compound] :: 40
CCCCc1ccc(NC(=O)C(=Nc2ccc(N(CC)CCNS(C)(=O)=O)cc2C)C(=O)c2ccn(-c3ccccc3)c2)cc1 [Cmp-1, reference compound] :: 42
CCCCc1ccc(NC(=O)C(=Nc2ccc(N(CC)CCNS(C)(=O)=O)cc2C)C(=O)c2c(-c3ccccc3)n(C)c3ccc(C#N)cc23)cc1 :: 33
CCCCc1ccc(NC(=O)C(=Nc2ccc(N(CC)CCNS(C)(=O)=O)cc2C)C(=O)c2cn(-c3ccccc3)cc2C)cc1 [Cmp-2, reference compound] :: 40
CCCCc1ccc(NC(=O)C(=Nc2ccc(N(CC)CCNS(C)(=O)=O)cc2C)C(=O)c2c3c(n(C)c2-c2ccccc2)CCCC3)cc1 :: 34
CCCCc1ccc(NC(=O)C(=Nc2ccc(N(CC)CCNS(C)(=O)=O)cc2C)C(=O)c2c(C3CCCCC3)n(C)c3ccccc23)cc1 :: 37
CCCCc1ccc(NC(=O)C(=Nc2ccc(N(CC)CCNS(C)(=O)=O)cc2C)C(=O)c2c3n(c4ccccc24)CCCC3)cc1 :: 38
CCCCc1ccc(NC(=O)C(=Nc2ccc(N(CC)CCNS(C)(=O)=O)cc2C)C(=O)c2c(-c3ccccc3)[nH]c3ccccc23)cc1 :: 35
CCCCc1ccc(NC(=O)C(=Nc2ccc(N(CC)CCNS(C)(=O)=O)cc2C)C(=O)c2c(-c3ccccc3)n(C)c3ccc(OC)cc23)cc1 :: 33
CCCCc1ccc(NC(=O)C(=Nc2ccc(N(CC)CCNS(C)(=O)=O)cc2C)C(=O)c2c(C)[nH]c3ccccc23)cc1 :: 37
CCCCc1ccc(NC(=O)C(=Nc2ccc(N(CC)CCNS(C)(=O)=O)cc2C)C(=O)c2c(-c3ccccc3)n(C)c3ccccc23)cc1 :: 32
CCCCc1ccc(NC(=O)C(=Nc2ccc(N(CC)CCNS(C)(=O)=O)cc2C)C(=O)c2ccn(-c3ccccc3)c2C)cc1 [Cmp-4, reference compound] :: 40
CCCCc1ccc(NC(=O)C(=Nc2ccc(N(CC)CCNS(C)(=O)=O)cc2C)C(=O)c2c3c(n(C)c2-c2ccccc2)CCC3)cc1 :: 35
CCCCc1ccc(NC(=O)C(=Nc2ccc(N(CC)CCNS(C)(=O)=O)cc2C)C(=O)c2c(C)n(C)c3ccccc23)cc1 :: 37
CCCCc1ccc(NC(=O)C(=Nc2ccc(N(CC)CCNS(C)(=O)=O)cc2C)C(=O)C(C)(C)C)cc1 [Cmp-7, reference compound] :: 42
CCCCc1ccc(NC(=O)C(=Nc2ccc(N(CC)CCNS(C)(=O)=O)cc2C)C(=O)c2c(-c3ccccc3)oc3ccccc23)cc1 :: 47
CCCCc1ccc(NC(=O)C(=Nc2ccc(N(CC)CCNS(C)(=O)=O)cc2C)C(=O)c2c(-c3ccccc3)n(-c3ccccc3)c3ccccc23)cc1 :: 33

* * *

- procedureText: Spectrophotometric response of dyes in dilute acetonitrile solution
- Type: physicochemical
- details: in M-1 cm-1 (unit assumed)
# Lookup of reported Extinction keyed by entry

Use the examples below as a reference point.
CCCCc1ccc(NC(=O)C(=Nc2ccc(N(CC)CCNS(C)(=O)=O)cc2C)C(=O)c2c(C)[nH]c3ccccc23)cc1 :: 10,000
CCCCc1ccc(NC(=O)C(=Nc2ccc(N(CC)CCNS(C)(=O)=O)cc2C)C(=O)c2c(C)n(C)c3ccccc23)cc1 :: 16,200
CCCCc1ccc(NC(=O)C(=Nc2ccc(N(CC)CCNS(C)(=O)=O)cc2C)C(=O)c2c(-c3ccccc3)n(C)c3ccc(C#N)cc23)cc1 :: 20,100
CCCCc1ccc(NC(=O)C(=Nc2ccc(N(CC)CCNS(C)(=O)=O)cc2C)C(=O)c2c(-c3ccccc3)n(C)c3ccc(OC)cc23)cc1 :: 21,300
CCCCc1ccc(NC(=O)C(=Nc2ccc(N(CC)CCNS(C)(=O)=O)cc2C)C(=O)c2c(-c3ccccc3)c3ccccc3n2C)cc1 :: 11,900

# Extinction of `CCCCc1ccc(NC(=O)C(=Nc2ccc(N(CC)CCNS(C)(=O)=O)cc2C)C(=O)c2c(-c3ccccc3)n(-c3ccccc3)c3ccccc23)cc1` = 16,600

# Extinction of `CCCCc1ccc(NC(=O)C(=Nc2ccc(N(CC)CCNS(C)(=O)=O)cc2C)C(=O)c2c3c(n(C)c2-c2ccccc2)CCC3)cc1` = 17,700

# Extinction of `CCCCc1ccc(NC(=O)C(=Nc2ccc(N(CC)CCNS(C)(=O)=O)cc2C)C(=O)c2c3c(n(C)c2-c2ccccc2)CCCC3)cc1` = 19,300

# Extinction of CCCCc1ccc(NC(=O)C(=Nc2ccc(N(CC)CCNS(C)(=O)=O)cc2C)C(=O)c2cn(-c3ccccc3)cc2C)cc1 [Cmp-2, reference compound] = 13,900

# Extinction of CCCCc1ccc(NC(=O)C(=Nc2ccc(N(CC)CCNS(C)(=O)=O)cc2C)C(=O)c2ccn(-c3ccccc3)c2C)cc1 [Cmp-4, reference compound] = 12,600

# Extinction of CCCCc1ccc(NC(=O)C(=Nc2ccc(N(CC)CCNS(C)(=O)=O)cc2C)C(=O)c2ccn(-c3ccccc3)c2)cc1 [Cmp-1, reference compound] = 12,800

# Extinction of `CCCCc1ccc(NC(=O)C(=Nc2ccc(N(CC)CCNS(C)(=O)=O)cc2C)C(=O)c2cn(C)c3ccccc23)cc1` = 13,500

# Extinction of `CCCCc1ccc(NC(=O)C(=Nc2ccc(N(CC)CCNS(C)(=O)=O)cc2C)C(=O)c2c(-c3ccccc3)[nH]c3ccccc23)cc1` = 14,100

* * *

- procedureText: Spectrophotometric response of dyes in dilute acetonitrile solution
- Type: physicochemical
propertyLabel: λmax (nm)

CCCCc1ccc(NC(=O)C(=Nc2ccc(N(CC)CCNS(C)(=O)=O)cc2C)C(=O)c2c(C)[nH]c3ccccc23)cc1 :: 426
CCCCc1ccc(NC(=O)C(=Nc2ccc(N(CC)CCNS(C)(=O)=O)cc2C)C(=O)c2c(-c3ccccc3)n(C)c3ccc(OC)cc23)cc1 :: 426
CCCCc1ccc(NC(=O)C(=Nc2ccc(N(CC)CCNS(C)(=O)=O)cc2C)C(=O)c2cn(-c3ccccc3)cc2C)cc1 [Cmp-2, reference compound] :: 428
CCCCc1ccc(NC(=O)C(=Nc2ccc(N(CC)CCNS(C)(=O)=O)cc2C)C(=O)c2c(-c3ccccc3)c3ccccc3n2C)cc1 :: 438
CCCCc1ccc(NC(=O)C(=Nc2ccc(N(CC)CCNS(C)(=O)=O)cc2C)C(=O)c2c3c(n(C)c2-c2ccccc2)CCC3)cc1 :: 424
CCCCc1ccc(NC(=O)C(=Nc2ccc(N(CC)CCNS(C)(=O)=O)cc2C)C(=O)c2c3n(c4ccccc24)CCCC3)cc1 :: 426
CCCCc1ccc(NC(=O)C(=Nc2ccc(N(CC)CCNS(C)(=O)=O)cc2C)C(=O)c2c3c(n(C)c2-c2ccccc2)CCCC3)cc1 :: 422
CCCCc1ccc(NC(=O)C(=Nc2ccc(N(CC)CCNS(C)(=O)=O)cc2C)C(=O)c2c(C)n(C)c3ccccc23)cc1 :: 428
CCCCc1ccc(NC(=O)C(=Nc2ccc(N(CC)CCNS(C)(=O)=O)cc2C)C(=O)c2ccn(-c3ccccc3)c2)cc1 [Cmp-1, reference compound] :: 430
CCCCc1ccc(NC(=O)C(=Nc2ccc(N(CC)CCNS(C)(=O)=O)cc2C)C(=O)c2c(C3CCCCC3)n(C)c3ccccc23)cc1 :: 428
CCCCc1ccc(NC(=O)C(=Nc2ccc(N(CC)CCNS(C)(=O)=O)cc2C)C(=O)c2cn(C)c3ccccc23)cc1 :: 428
CCCCc1ccc(NC(=O)C(=Nc2ccc(N(CC)CCNS(C)(=O)=O)cc2C)C(=O)c2c(-c3ccccc3)n(-c3ccccc3)c3ccccc23)cc1 :: 426
CCCCc1ccc(NC(=O)C(=Nc2ccc(N(CC)CCNS(C)(=O)=O)cc2C)C(=O)c2c(-c3ccccc3)n(C)c3ccc(C#N)cc23)cc1 :: 430

* * *

- procedureText: Spectrophotometric response of dyes in dilute acetonitrile solution
- Type: physicochemical
propertyLabel: λmax (nm)

CCCCc1ccc(NC(=O)C(=Nc2ccc(N(CC)CCNS(C)(=O)=O)cc2C)C(=O)C(C)(C)C)cc1 [Cmp-7, reference compound] :: 428
CCCCc1ccc(NC(=O)C(=Nc2ccc(N(CC)CCNS(C)(=O)=O)cc2C)C(=O)c2ccn(-c3ccccc3)c2C)cc1 [Cmp-4, reference compound] :: 434
CCCCc1ccc(NC(=O)C(=Nc2ccc(N(CC)CCNS(C)(=O)=O)cc2C)C(=O)c2c(-c3ccccc3)oc3ccccc23)cc1 :: 444
CCCCc1ccc(NC(=O)C(=Nc2ccc(N(CC)CCNS(C)(=O)=O)cc2C)C(=O)c2c(-c3ccccc3)n(C)c3ccccc23)cc1 :: 426
CCCCc1ccc(NC(=O)C(=Nc2ccc(N(CC)CCNS(C)(=O)=O)cc2C)C(=O)c2cccn2-c2ccccc2)cc1 [Cmp-3, reference compound] :: 426
CCCCc1ccc(NC(=O)C(=Nc2ccc(N(CC)CCNS(C)(=O)=O)cc2C)C(=O)c2c(-c3ccccc3)[nH]c3ccccc23)cc1 :: 430
